system.tested: Transcriptional regulator ERG (Homo sapiens) (UniProt P11308)
Sequence (P11308 whole entry, looked up): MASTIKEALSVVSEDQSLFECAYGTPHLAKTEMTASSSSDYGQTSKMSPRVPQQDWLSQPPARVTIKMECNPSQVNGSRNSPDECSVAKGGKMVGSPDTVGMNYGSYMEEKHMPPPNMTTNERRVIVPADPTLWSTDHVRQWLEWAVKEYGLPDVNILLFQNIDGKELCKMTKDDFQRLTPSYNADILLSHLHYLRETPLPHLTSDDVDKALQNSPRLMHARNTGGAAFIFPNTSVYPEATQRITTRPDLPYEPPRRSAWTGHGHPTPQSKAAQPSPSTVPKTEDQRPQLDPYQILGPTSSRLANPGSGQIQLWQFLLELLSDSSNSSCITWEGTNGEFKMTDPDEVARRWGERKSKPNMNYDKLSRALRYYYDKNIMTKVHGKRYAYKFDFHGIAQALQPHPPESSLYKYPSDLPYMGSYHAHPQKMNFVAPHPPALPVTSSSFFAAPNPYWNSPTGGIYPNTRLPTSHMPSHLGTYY
protocol.summary: qHTS for Small Molecule Inhibitors of the ERG Ets/DNA interaction
stated.conditions: fluorescence polarization, His-ERG Ets domain / labelled DNA; series mostly up to 76.9 µM
Hit rate of the full screen: of about 370,000 compounds, about 100 (0.027%) were called active. The call rests on the fitted dose curve; in most records, active means well fitted inhibition curve with a large enough effect in the polarisation, with a control signal flat; inconclusive means small, poorly fitted or top-dose-only effect, or effect the other way, or a change in a side signal; inactive means no such curve, though single readings can be large or run the other way; the % refers to the polarisation. This excerpt belongs to a sample that is enriched for actives.
Mark one answer only. Choices: YES (active), NO (inactive)

Exam item: Which result was noted for this molecule in the test: CCc1ccccc1N(C)C(=O)C1CCCN(c2ncnc3onc(-c4ccc(F)cc4)c23)C1 (stereo not given)
Marked response: NO

Exam item: Test call, this molecule: CCc1ccc(S(=O)(=O)c2nnn3c2nc(N2CCN(CC)CC2)c2sccc23)cc1
Marked response: NO

Exam item: Returns: the outcome recorded for Cc1ccc(-n2ncc3c(NCCCn4ccnc4)ncnc32)cc1Cl in this assay.
Marked response: NO

Exam item: Outcome? C/C(=N/NC(=O)CCc1ccccc1)c1ccco1
Marked response: YES

Exam item: Please let me know the test result on file for COc1cccc2cc(/C(C)=N/NC(=O)c3ccco3)oc12 .
Marked response: NO

Exam item: Kindly provide the recorded test outcome for the following molecule: Cc1ccc(-c2cn3c(n2)sc2cc(C(=O)NCc4cccs4)ccc23)c(C)c1
Marked response: NO

Exam item: I'd appreciate the recorded outcome for COc1ccc(CCNC(=O)c2c3c(nc4ccccc24)C(=O)N(C2CCCCC2)C3)cc1OC from this test.
Marked response: NO

Exam item: Returns: the outcome recorded for O=C(CSc1n[nH]c(-c2ccccc2)n1)N1CCCCC1 in this assay.
Marked response: NO

Exam item: Given COc1ccc(OC)c(CNC(=O)Cn2nc(C)c3c(C)n(-c4ccccc4)nc3c2=O)c1 , state the outcome it received in this test.
Marked response: NO

Next item in the queue.
Exam item: Any idea what this test logged for C/C(CC(=O)NC(C)(C)C)=N\NC(=O)c1ccco1 ?
Marked response: NO

----------
system.tested: Transcriptional regulator ERG (Homo sapiens) (UniProt P11308)
protocol.summary: qHTS for Small Molecule Inhibitors of the ERG Ets/DNA interaction
stated.conditions: fluorescence polarization, His-ERG Ets domain / labelled DNA; series mostly up to 76.9 µM
Screen size: about 370,000 compounds; about 100 (0.027%) were called active. Calls follow the shape of the dose curve; as a rule, active = well fitted inhibition curve with a large enough effect in the polarisation, with a control signal flat; inconclusive = small, poorly fitted or top-dose-only effect, or effect the other way, or a change in a side signal; inactive = no such curve, though single readings can be large or run the other way; the % refers to the polarisation. Many of the other results were omitted from the sample, so actives are more common in it than they were.
Classes to choose from: active, inactive

Below, 3 compounds whose answers are already recorded.
Exam item: Dear colleague, could you share the recorded outcome for CCc1ccccc1NC(=O)c1sc2nc3c(cc2c1N)CN(Cc1ccccc1)CC3 when you have a moment?
Marked response: inactive

Exam item: Answer briefly: the call reported for Cc1ccc(Cl)cc1NC(=O)CCC(=O)N1CC(C)Sc2ccccc21 (stereo not given) in this assay.
Marked response: inactive

Exam item: Could you please tell me the result logged for COc1ncnc2c1N=C1CC(C)(C)CC(N)=C1S2 in this assay?
Marked response: active

More entries:
Exam item: What call does the record list for CCOc1ccc(CNC(=O)c2cccc(Nc3nc4ccccc4n4nnnc34)c2)cc1OC ?
Marked response: inactive

Exam item: For CCCc1nn2c(=O)cc(COC(=O)c3ccc(NC(=O)COc4ccc(F)cc4)cc3)nc2s1 , which call appears in the assay record?
Marked response: inactive

----------
system.tested: Transcriptional regulator ERG (Homo sapiens)
protocol.summary: qHTS for Small Molecule Inhibitors of the ERG Ets/DNA interaction
stated.conditions: fluorescence polarization, His-ERG Ets domain / labelled DNA; series mostly up to 76.9 µM
About 100 (0.027%) of roughly 370,000 compounds were called active. The sample as a whole holds a higher share of actives than the screen did.
property: outcome

Exam item: Provide only the value of recorded outcome for Cc1ccc(C(=O)N2CCc3cc(CNC(=O)c4ccc(Br)cc4)ccc32)cc1
Marked response: inactive

Exam item: Annotate the molecule O=C(CN1CCN(Cc2ccc(Cl)cc2)C1=O)NCc1ccc(F)cc1 with its measured outcome.
Marked response: inactive

Exam item: Using known records, supply outcome for N#Cc1ccc(-c2cccs2)nc1SCc1ccc(Br)cc1
Marked response: inactive

Exam item: Tell me its outcome given CCOC(=O)c1ccc2c(c1)N(Cc1cccc(OC)c1)C(=O)c1ccccc1S2(=O)=O as the entry.
Marked response: inactive

***
Exam item: For the molecule Cc1ccc(Cn2c(CNC(=O)Cc3cccc(C)c3)nc3cccnc32)cc1 , give its reported outcome.
Marked response: inactive

Exam item: Specify reported outcome for the molecule shown: COc1ccccc1NC(=O)CN1C(=O)c2ccccc2Sc2ccc(C(=O)N3CCCC3)cc21
Marked response: inactive

Exam item: Fill in outcome for record O=C1Cc2cc(S(=O)(=O)Nc3ccc(OC(F)(F)F)cc3)cc3c2N1CCC3
Marked response: inactive

----------
system.tested: Transcriptional regulator ERG (Homo sapiens) (UniProt P11308)
protocol.summary: qHTS for Small Molecule Inhibitors of the ERG Ets/DNA interaction
stated.conditions: fluorescence polarization, His-ERG Ets domain / labelled DNA; series mostly up to 76.9 µM
Screen size: about 370,000 compounds; about 100 (0.027%) were called active. What follows is part of a selection rich in actives, with near analogues and random picks from the rest.
property: outcome

Exam item: Indicate the recorded outcome value for this compound: COc1ccccc1NC(=O)C1=C(C)Nc2nc(SCC(=O)c3ccc(C)cc3)nn2C1c1ccccc1C (stereo not drawn)
Marked response: inactive

Exam item: Assign outcome to the following record: CCOc1cccc(CC(=O)N2CCc3c([nH]c4ccccc34)C2c2ccc(F)cc2)c1OCC (stereo not drawn)
Marked response: inactive

Exam item: Write down outcome measured for item CCN(CC)CCNC(=O)CN1N=C(c2ccc(OC)cc2)CCC1=O
Marked response: inactive
